Where do the numbers come from? From patent US20240383923A1.

Attribute: GI50
# Test system: BT-474 cancer cells
# test description: Inhibition of BT-474 cell proliferation (CellTiter-Glo)
# Type: cell-based
# condition info: Homo sapiens, BT-474 cells, 120 hours
measured quantity: GI50

compound | endpoint result
COc1cc2ncnc(Nc3cc(C)c(Oc4cc5ncnn5cn4)cc3OC)c2cc1NC(=O)/C(F)=C\[C@H]1CCCN1C [Example 47] | ≤ 50 nM
COc1cc2ncnc(Nc3cc(C)c(Oc4ccc5c(c4)NC(O)O5)cc3OC)c2cc1NC(=O)/C(F)=C/[C@H]1CCCN1C (stereo partly shown) [Example 70] | ≤ 50 nM
COc1cc2ncnc(Nc3cc(C)c(Oc4cc5ncnn5cn4)cc3OC)c2cc1NC(=O)/C(F)=C/[C@H]1CCCN1C [Example 48] | ≤ 50 nM
COc1cc(Oc2ccn3ncnc3c2)c(C)cc1Nc1ncnc2cc(OC)c(OC3CCN(C(=O)C(F)Cl)CC3)cc12 (stereo not shown) [Example 14] | ≤ 50 nM

* * *

# System: BT-474 cancer cells
# test description: Inhibition of BT-474 cell proliferation (CellTiter-Glo)
# Type: cell-based
# condition info: Homo sapiens, BT-474 cells, 120 hours
GI50: recorded values
measured quantity: GI50

smiles data | measured quantity | endpoint result
[2H]C([2H])([2H])Oc1cc(Oc2ccn3ncnc3c2)c(F)cc1Nc1ncnc2cc(OC)c(NC(=O)/C(F)=C/[C@H]3CCCN3C)cc12 | GI50 | ≤ 0.05 µM
COc1cc2ncnc(Nc3cc(C)c(Oc4ccccc4)cc3OC)c2cc1NC(=O)/C(F)=C\[C@H]1CCCN1C | GI50 | ≤ 0.05 µM
COc1cc2ncnc(Nc3cc(F)c(Oc4ccc5c(c4)ncn5C)cc3OC)c2cc1NC(=O)/C(F)=C/[C@H]1CCCN1C | GI50 | ≤ 0.05 µM
[2H]C([2H])([2H])N1CCC[C@@H]1/C=C(\F)C(=O)Nc1cc2c(Nc3cc(F)c(Oc4ccn5ncnc5c4)cc3OC)ncnc2cc1OC | GI50 | ≤ 0.05 µM
C=CC(=O)N1CCC(Nc2cc3c(Nc4cc(C)c(Oc5ccn6ncnc6c5)cc4OC4CN(C)C4)ncnc3cc2OC)CC1 | GI50 | 0.1 to 0.5 µM
CC#CC(=O)Nc1cc2c(Nc3cc(C)c(Oc4ccn5ncnc5c4)cc3OC)ncnc2cc1OC | GI50 | ≤ 0.05 µM
COc1cc2ncnc(Nc3ccc(Oc4ccn5ncnc5c4)cc3OC3COC3)c2cc1NC(=O)/C(F)=C\[C@H]1CCCN1C(=O)OC(C)(C)C | GI50 | > 0.5 µM

* * *

# Test system: BT-474 cancer cells
# test description: Inhibition of BT-474 cell proliferation (CellTiter-Glo)
# Assay type: cell-based
# condition info: Homo sapiens, BT-474 cells, 120 hours
measured quantity: GI50

compound | endpoint result
C=CC(=O)N1CC2CC1CC2Oc1cc2c(Nc3cc(C)c(Oc4ccn5ncnc5c4)cc3OC)ncnc2cc1OC (stereo not shown) | ≤ 50 nM
COc1cc2ncnc(Nc3cc(F)c(Oc4ccn5ncnc5c4)cc3OC)c2cc1NC(=O)/C(F)=C\[C@H]1CCCN1C | ≤ 50 nM
COc1cc2ncnc(Nc3cc(C)c(Oc4ccn5ncnc5c4)cc3OC)c2cc1NC(=O)/C=C/CN1CC2(COC2)C1 | ≤ 50 nM
COc1cc2ncnc(Nc3cc(C)c(Oc4ccc5c(c4)ncn5C)cc3OC)c2cc1NC(=O)/C(F)=C/[C@H]1CCCN1C | ≤ 50 nM
C=CC(=O)N1CCN(c2ncc3ncnc(Nc4cc(C)c(Oc5ccn6ncnc6c5)cc4OC)c3n2)CC1 | ≤ 50 nM
COc1cc2ncnc(Nc3cc(C)c(Oc4ccc5nccnc5c4)cc3OC)c2cc1NC(=O)/C(F)=C/[C@H]1CCCN1C | ≤ 50 nM
COc1cc2ncnc(Nc3cc(Cl)c(Oc4cccc(F)c4)cc3OC)c2cc1NC(=O)/C=C/[C@H]1CCCN1 | ≤ 50 nM

* * *

# Test system: BT-474 cancer cells
# test description: Inhibition of BT-474 cell proliferation (CellTiter-Glo)
# Format: cell-based
# condition info: Homo sapiens, BT-474 cells, 120 hours
measured quantity: GI50

molecule | endpoint result
COc1cc2ncnc(Nc3cc(C)c(Oc4ccc(C(=O)N(C)C)cc4)cc3OC)c2cc1NC(=O)/C(F)=C/[C@H]1CCCN1C [Example 125] | 50 to 100 nM
COc1cc2ncnc(Nc3cc(C)c(Oc4ccc(C(=O)N(C)C)cc4)cc3OC)c2cc1NC(=O)/C(F)=C\[C@H]1CCCN1C [Example 126] | 100 to 500 nM
C=CC(=O)N1CCC(Oc2cc3c(Nc4ccc(Oc5ccn(-c6cnc(C)c(F)c6)n5)cc4OC)ncnc3cc2OC)CC1 [Example 9] | 50 to 100 nM

* * *

# Test system: BT-474 cancer cells
# test description: Inhibition of BT-474 cell proliferation (CellTiter-Glo)
# Assay type: cell-based
# condition info: Homo sapiens, BT-474 cells, 120 hours
Reported GI50 values for the following molecules.

molecule | GI50
C=CC(=O)N1CCC(Oc2cc3c(Nc4ccc(Oc5cccc(F)c5)cc4OC)ncnc3cc2OC)CC1 [Example 7] | ≤ 50 nM
C=CC(=O)N1CCC(Oc2cc(OC)cc3ncnc(Nc4cc(C)c(Oc5ccn6ncnc6c5)cc4OC)c23)C(F)(F)C1 (stereo not drawn) [Example 15] | ≤ 50 nM
[2H]C([2H])([2H])Oc1cc(Oc2ccn3ncnc3c2)c(F)cc1Nc1ncnc2cc(OC)c(NC(=O)/C(F)=C\[C@H]3CCCN3C)cc12 [Example 152] | ≤ 50 nM
[2H]C([2H])([2H])Oc1cc(Oc2ccn3ncnc3c2)c(C)cc1Nc1ncnc2cc(OC)c(NC(=O)/C(F)=C\[C@H]3CCCN3C)cc12 [Example 150] | ≤ 50 nM
COc1cc2ncnc(Nc3cc(C)c(Oc4ccn(C)c(=O)c4)cc3OC)c2cc1NC(=O)/C(F)=C\[C@H]1CCCN1C [Example 71] | ≤ 50 nM
COc1cc(Oc2ccn3ncnc3c2)c(C)cc1Nc1ncnc2cc(OCCN3CCOCC3)c(NC(=O)/C(F)=C/[C@H]3CCCN3C)cc12 [Example 101] | ≤ 50 nM
C=CC(=O)N1CCC(Nc2cc3c(Nc4cc(C)c(Oc5ccn6ncnc6c5)cc4OC)ncnc3cc2OC)CC1 [Example 1] | ≤ 50 nM
C=CC(=O)Nc1cc2c(Nc3cc(Cl)c(Oc4ccccn4)cc3OC)ncnc2cc1OC [Example 24] | ≤ 50 nM
COc1cc2ncnc(Nc3cc(C)c(Oc4ccc5scnc5c4)cc3OC)c2cc1NC(=O)/C(F)=C\[C@H]1CCCN1C [Example 84] | ≤ 50 nM
COc1cc(Oc2ccn3ncnc3c2)c(C)cc1Nc1ncnc2cc(OC(F)F)c(NC(=O)/C(F)=C\[C@H]3CCCN3C)cc12 [Example 99] | ≤ 50 nM
CCN1CCC[C@@H]1/C=C(/F)C(=O)Nc1cc2c(Nc3cc(C)c(Oc4ccn5ncnc5c4)cc3OC)ncnc2cc1OC [Example 52] | ≤ 50 nM
C=CC(=O)N1CC(Oc2cc3c(Nc4cc(C)c(Oc5ccn6ncnc6c5)cc4OC)ncnc3cc2OC)C1 [Example 19] | ≤ 50 nM
COc1cc2ncnc(Nc3cc(C)c(Oc4ccn5ncnc5c4)cc3OC)c2cc1NC(=O)/C(F)=C\[C@@H]1CCCN1C [Example 44] | ≤ 50 nM
COCCOc1cc2ncnc(Nc3cc(C)c(Oc4ccn5ncnc5c4)cc3OC)c2cc1NC(=O)/C(F)=C/[C@H]1CCCN1C [Example 95] | ≤ 50 nM
COc1cc2ncnc(Nc3cc(C)c(Oc4ccc(N(C)C)cc4)cc3OC)c2cc1NC(=O)/C(F)=C\[C@H]1CCCN1C [Example 123] | 50 to 100 nM
COc1cc2ncnc(Nc3cc(C)c(Oc4ccc5c(c4)ncn5C)cc3OC)c2cc1NC(=O)/C(F)=C\[C@H]1CCCN1C [Example 57] | ≤ 50 nM
[2H]C([2H])([2H])N1CCC[C@@H]1/C=C(/F)C(=O)Nc1cc2c(Nc3cc(F)c(Oc4ccn5ncnc5c4)cc3OC)ncnc2cc1OC [Example 157] | ≤ 50 nM
[2H]C([2H])([2H])N1CCC[C@@H]1/C=C(\F)C(=O)Nc1cc2c(Nc3cc(Cl)c(Oc4ccn5ncnc5c4)cc3OC)ncnc2cc1OC [Example 156] | ≤ 50 nM
COc1cc(Oc2ccn3ncnc3c2)c(C)cc1Nc1ncnc2ccc(NC(=O)/C=C/CN(C)C)c(Cl)c12 [Example 26] | ≤ 50 nM
COc1cc(Oc2ccn3ncnc3c2)c(C)cc1Nc1ncnc2cc(OC(F)F)c(NC(=O)/C(F)=C/[C@H]3CCCN3C)cc12 [Example 98] | ≤ 50 nM
COc1cc2ncnc(Nc3cc(Cl)c(Oc4ccc5c(c4)ncn5C)cc3OC)c2cc1NC(=O)/C(F)=C/[C@H]1CCCN1C [Example 58] | ≤ 50 nM
COc1cc2ncnc(Nc3cc(F)c(Oc4ccc5c(c4)ncn5C)cc3OC)c2cc1NC(=O)/C(F)=C\[C@H]1CCCN1C [Example 60] | ≤ 50 nM
COc1cc2ncnc(Nc3cc(C)c(Oc4ccc5ncn(C)c5c4)cc3OC)c2cc1NC(=O)/C(F)=C\[C@H]1CCCN1C [Example 55] | ≤ 50 nM
COc1cc2ncnc(Nc3cc(C)c(Oc4cccc(NC(C)=O)c4)cc3OC)c2cc1NC(=O)/C(F)=C/[C@H]1CCCN1C [Example 133] | ≤ 50 nM
CCOc1cc2ncnc(Nc3cc(C)c(Oc4ccn5ncnc5c4)cc3OC)c2cc1NC(=O)/C(F)=C\[C@H]1CCCN1C [Example 93] | ≤ 50 nM
COc1cc2ncnc(Nc3cc(C)c(Oc4ccn5ncnc5c4)cc3OC)c2cc1NC(=O)/C(C#N)=C\C(C)(C)N1CCN(C2COC2)CC1 [Example 144] | > 500 nM
[2H]C([2H])([2H])N1CCC[C@@H]1/C=C(\F)C(=O)Nc1cc2c(Nc3cc(C)c(Oc4ccn5ncnc5c4)cc3OC)ncnc2cc1OC [Example 154] | ≤ 50 nM
